- protocol: HILIC, Merck SeQuant ZIC-pHILIC, 150 × 2.1 mm, 5 µm, 40 °C, 0.3 mL/min, estimated dead time 1.1 min; A: acetonitrile; B: water + 2.8 mM ammonium formate, pH 9; gradient (min/%B) 0/5 1/5 10/51 13/51 13.1/5 20/5
- experimental.context: stereoisomer not certain
readout: LC retention time (min)

molecule	LC retention time (min)
NCC(=O)CCC(=O)O [5-AMINOLEVULINATE]	9.28
CC(=O)NC(Cc1c[nH]c2ccccc12)C(=O)O (centres undefined) [N-ACETYLTRYPTOPHAN]	5.66
OCC1OC(OCC2OC(O)(CO)C(O)C2O)C(O)C(O)C1O (centres undefined) [PALATINOSE]	8.8
CC(=O)NC1C(O)CC(O)(C(=O)O)OC1C(O)C(O)CO (centres undefined) [N-ACETYLNEURAMINATE]	8.33
O=P(O)(O)OC(CO)CO [BETA-GLYCEROPHOSPHATE]	8.57
O=C([O-])c1cc(=O)[nH]c(=O)[nH]1 [OROTATE]	7.34
NCCS(=O)O [HYPOTAURINE]	8.8
CC(O)(CC(=O)O)CC(=O)O [3-HYDROXYMETHYLGLUTARATE]	8.15
CC(CCC(=O)O)C(=O)O (centres undefined) [2-METHYLGLUTARATE]	7.37

###

- protocol: HILIC, Merck SeQuant ZIC-pHILIC, 150 × 2.1 mm, 5 µm, 40 °C, 0.3 mL/min, estimated dead time 1.1 min; A: acetonitrile; B: water + 2.8 mM ammonium formate, pH 9; gradient (min/%B) 0/5 1/5 10/51 13/51 13.1/5 20/5
- experimental.context: stereoisomer not certain
readout: LC retention time (min)

compound	value.unit	LC retention time
N[C@@H](Cc1ccc(O)c([N+](=O)[O-])c1)C(=O)O [3-NITRO-L-TYROSINE]	min	7.37
Nc1ccccc1S(=O)(=O)O [ANILINE-2-SULFONATE]	min	5.89
CCCCC(N)C(=O)O (configuration not stated) [NORLEUCINE]	min	7.04
NC(=O)C1CCCN1C(=O)C(Cc1cnc[nH]1)NC(=O)C1CCC(=O)N1 (configuration not stated) [THYROTROPIN RELEASING HORMONE]	min	6.53
CCC(C)C(N)C(=O)O (configuration not stated) [ISOLEUCINE]	min	7.18
NC(CCC(=O)O)C(=O)O (configuration not stated) [GLUTAMATE]	min	8.69
O=C(O)c1ccc([O-])c(O)c1 [3,4-DIHYDROXYBENZOATE]	min	8.04

###

- protocol: HILIC, Waters ACQUITY UPLC BEH Amide, 150 × 2.1 mm, 1.7 µm, 40 °C, 0.5 mL/min, estimated dead time 0.66 min; A: 5% water + 95% acetonitrile; B: 70% water + 30% acetonitrile + 10 mM ammonium formate, pH 6.5; gradient (min/%B) 0/0 2/0 20/70 23/70 24/0 31/0
- experimental.context: stereoisomer not certain
readout: LC retention time (min)

compound	readout	readout.value
CC(=O)C(C)O (stereo not drawn)	LC retention time	8.78
O=C1CCCCO1	LC retention time	1.14
NCCCCC(=O)O [5-AMINOPENTANOATE]	LC retention time	10.4
CC(=O)NC(CO)C(=O)O (stereo not drawn)	LC retention time	5.57

P: NC(N)=NCCCC(N)C(=O)O (stereo not drawn)
Q: O=c1cc[nH]c(=O)[nH]1
R: O=C(O)CNC(=O)c1ccccc1 [HIPPURATE]
S: Nc1ncnc2c1ncn2C1OC(CO)C(O)C1O (stereo not drawn)
T: NCCc1cnc[nH]1
IN: Which order do these items take when sorted by rising LC retention time? List them. Order the labels as requested and give them as your answer.
OUT: Q, R, S, T, P

###

- protocol: HILIC, Waters ACQUITY UPLC BEH Amide, 150 × 2.1 mm, 1.7 µm, 40 °C, 0.5 mL/min, estimated dead time 0.66 min; A: 5% water + 95% acetonitrile; B: 70% water + 30% acetonitrile + 10 mM ammonium formate, pH 6.5; gradient (min/%B) 0/0 2/0 20/70 23/70 24/0 31/0
- experimental.context: stereoisomer not certain
readout: LC retention time (min)

Example entries and their recorded answers appear below.
compound	LC retention time (min)
NC(CS(=O)(=O)O)C(=O)O (centres undefined) [CYSTEATE]	10.8
CC1C(=O)Nc2ccccc21 (centres undefined)	0.84
Cn1c(=O)c2c(ncn2C)n(C)c1=O	1.03
NC(=O)[C@@H](N)Cc1c[nH]c2ccccc12 [L-TRYPTOPHANAMIDE]	5.86
OCCNCCO	8.78
O=c1[nH]cnc2nc[nH]c12	3.88
CC(C)CC(N)C(=O)O (centres undefined)	7.96
NC(N)=NCC(=O)O [GUANIDINOACETATE]	10.2
O=c1ccn(C2OC(CO)C(O)C2O)c(=O)[nH]1 (centres undefined)	3.65
NC(=O)c1cccnc1 [NICOTINAMIDE]	1.38

P: c1ncc2[nH]cnc2n1
Q: Cc1cnc(=O)[nH]c1N
IN: Kindly identify which of P and Q has the larger recorded LC retention time value. State the label of the item chosen.
OUT: Q

The values you see were collected from the RepoRT retention time repository (doi:10.1016/j.chroma.2019.01.023).
